// provenance: ChEMBL document CHEMBL1130625

tested on: Citrobacter freundii; experiment: Compound was tested for antibacterial activity against gram negative Citrobacter freundii KP-29; format: functional; settings: Citrobacter freundii; read-out: MIC
PARAMETER_MEASURED: MIC (µg/mL)

COMPOUND	PARAMETER_MEASURED	LIMIT_SIGN	VALUE_OBSERVED
CC1COc2c(N3CCN(C)CC3)c(F)cc3c(=O)c(C(=O)O)cn1c23 (stereo not drawn)	MIC	=	50
COc1c(N2CC[C@@](CN)(C(F)(F)F)C2)c(F)cc2c(=O)c(C(=O)O)cn(C3CC3)c12.Cl	MIC	>	12.5
NC1CCN(c2nc3c(cc2F)c(=O)c(C(=O)O)cn3-c2ccc(F)cc2F)C1 (stereo not drawn)	MIC	>	12.5
COc1c(N2C[C@H](CN)[C@@H](C(F)(F)F)C2)c(F)cc2c(=O)c(C(=O)O)cn(C3CC3)c12.Cl	MIC	=	50
COc1c(N2C[C@H](CN)[C@H](C(F)(F)F)C2)c(F)cc2c(=O)c(C(=O)O)cn(C3CC3)c12.Cl	MIC	=	6.25
COc1c(N2C[C@@H](CN)[C@H](C(F)(F)F)C2)c(F)cc2c(=O)c(C(=O)O)cn(C3CC3)c12.Cl (racemic)	MIC	=	25
COc1c(N2CC[C@@](CO)(C(F)(F)F)C2)c(F)cc2c(=O)c(C(=O)O)cn(C3CC3)c12	MIC	>	100
COc1c(N2C[C@@H](N)[C@H](C(F)(F)F)C2)c(F)cc2c(=O)c(C(=O)O)cn(C3CC3)c12.O=C(O)C(F)(F)F	MIC	=	100
COc1c(N2C[C@@H](C(F)(F)F)[C@@H](N)C2)c(F)cc2c(=O)c(C(=O)O)cn(C3CC3)c12.Cl	MIC	=	100
COc1c(N2C[C@@H](CN)[C@H](C)C2)c(F)cc2c(=O)c(C(=O)O)cn(C3CC3)c12.Cl	MIC	=	12.5
COc1c(N2C[C@@H](CO)[C@H](C(F)(F)F)C2)c(F)cc2c(=O)c(C(=O)O)cn(C3CC3)c12	MIC	>	100
COc1c(N2C[C@H](CO)[C@H](C(F)(F)F)C2)c(F)cc2c(=O)c(C(=O)O)cn(C3CC3)c12	MIC	>	100
COc1c(N2CC[C@@](N)(C(F)(F)F)C2)c(F)cc2c(=O)c(C(=O)O)cn(C3CC3)c12.Cl	MIC	=	100

====

tested on: Serratia marcescens; experiment: Compound was tested for antibacterial activity against gram negative Serratia marcescens No.16-2; assay type: functional; settings: Serratia marcescens; read-out: MIC

COMPOUND	UNIT_LABEL	LIMIT_SIGN	MIC
COc1c(N2C[C@@H](CN)[C@H](C(F)(F)F)C2)c(F)cc2c(=O)c(C(=O)O)cn(C3CC3)c12.Cl (racemic)	mg/L	=	0.39
CC1COc2c(N3CCN(C)CC3)c(F)cc3c(=O)c(C(=O)O)cn1c23 (stereo not drawn)	mg/L	=	0.78
COc1c(N2CC[C@@](N)(C(F)(F)F)C2)c(F)cc2c(=O)c(C(=O)O)cn(C3CC3)c12.Cl	mg/L	=	3.13
COc1c(N2C[C@@H](C(F)(F)F)[C@@H](N)C2)c(F)cc2c(=O)c(C(=O)O)cn(C3CC3)c12.Cl	mg/L	=	3.13
COc1c(N2C[C@@H](CO)[C@H](C(F)(F)F)C2)c(F)cc2c(=O)c(C(=O)O)cn(C3CC3)c12	mg/L	=	6.25
COc1c(N2C[C@H](CN)[C@H](C(F)(F)F)C2)c(F)cc2c(=O)c(C(=O)O)cn(C3CC3)c12.Cl	mg/L	=	0.78
COc1c(N2CC[C@@](CN)(C(F)(F)F)C2)c(F)cc2c(=O)c(C(=O)O)cn(C3CC3)c12.Cl	mg/L	>	12.5
NC1CCN(c2nc3c(cc2F)c(=O)c(C(=O)O)cn3-c2ccc(F)cc2F)C1 (stereo not drawn)	mg/L	=	0.39
